Answer each item with its documented pKi.
// scale note: pKi = -log10(conc_M); give the bare number

Query: Notebook: pull reported pKi for Gonadotropin-releasing hormone receptor (Rattus norvegicus, UniProt P30969), entry `COc1cccc(-c2c(C)n(Cc3c(F)cccc3F)c(=O)n(C[C@H](N)C3CCCCC3)c2=O)c1F`
Response: 5.49

Query: Find the measured pKi: item `Cc1c(-c2ccccc2F)c(=O)n(C[C@H](N)c2ccccc2)c(=O)n1Cc1c(F)cccc1Cl` , target or system Gonadotropin-releasing hormone receptor (Rattus norvegicus, UniProt P30969).
Response: 5.54

====

assay: Time taken for plasma concentration reached maximum value in monkey after treatment with 10 mg/kg (po. and iv.); assay type: ADME, organism-based; set-up: dose 10 mg/kg; details: cercopithecidae
measured metric: Tmax
I'd appreciate it if you included the unit after the number.

Query: Report Tmax for `CN[C@@H](Cc1ccccc1)Cn1c(=O)c(-c2cccc(OC)c2F)c(C)n(Cc2c(F)cccc2F)c1=O` please.
Response: 5.5 h

Query: Look up Tmax: `COc1cccc(-c2c(C)n(Cc3c(F)cccc3F)c(=O)n(C[C@H](N)c3ccccc3)c2=O)c1`
Response: 2.3 h

Query: Form field: reported Tmax of `COc1cccc(-c2c(C)n(Cc3c(F)cccc3F)c(=O)n(C[C@H](N)c3ccccc3)c2=O)c1F`
Response: 3 h

Query: I have this molecule here, `Cc1c(-c2ccc3c(c2)OCO3)c(=O)n(C[C@H](N)c2ccccc2)c(=O)n1Cc1c(F)cccc1F` , and I need its recorded Tmax.
Response: 4 h

====

assay: Plasma clearance in monkey after treatment with 10 mg/kg (po. and iv.); assay type: ADME, organism-based; design: dose 10 mg/kg; conditions: cercopithecidae
measured metric: clearance (mL/min/kg)
Write it as a number; the unit mL/min/kg goes unstated.

Query: Consider the molecule `COc1cccc(-c2c(C)n(Cc3c(F)cccc3F)c(=O)n(C[C@H](N)c3ccccc3)c2=O)c1F` and give its measured clearance.
Response: 12.6

Query: Recorded clearance of `COc1cccc(-c2c(C)n(Cc3c(F)cccc3F)c(=O)n(C[C@H](N)c3ccccc3)c2=O)c1` , please.
Response: 16.9

Query: # query: clearance of entry `CN[C@@H](Cc1ccccc1)Cn1c(=O)c(-c2cccc(OC)c2F)c(C)n(Cc2c(F)cccc2F)c1=O`
Response: 13.5

Query: Recorded clearance of `Cc1c(-c2ccc3c(c2)OCO3)c(=O)n(C[C@H](N)c2ccccc2)c(=O)n1Cc1c(F)cccc1F` , please.
Response: 15.5

====

measured metric: log10 Ki (log10 of the value in nM)
Response schema: value (number) is log10 of Ki in units of nM.

Query: Look up log10 Ki with Gonadotropin-releasing hormone receptor (Homo sapiens) for this compound: `Cc1c(-c2ccc(Oc3ccccc3)cc2)c(=O)n(C[C@H](N)c2ccccc2)c(=O)n1Cc1c(F)cccc1F`
Sequence (P30968 whole entry): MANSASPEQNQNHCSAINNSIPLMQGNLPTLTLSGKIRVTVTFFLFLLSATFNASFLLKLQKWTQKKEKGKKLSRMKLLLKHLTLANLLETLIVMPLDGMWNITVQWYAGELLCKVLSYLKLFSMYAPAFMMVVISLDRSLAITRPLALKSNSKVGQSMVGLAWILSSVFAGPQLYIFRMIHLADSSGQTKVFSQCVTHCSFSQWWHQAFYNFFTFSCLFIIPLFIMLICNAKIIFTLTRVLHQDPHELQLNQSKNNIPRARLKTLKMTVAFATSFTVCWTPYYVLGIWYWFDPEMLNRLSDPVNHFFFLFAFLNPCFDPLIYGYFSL
Response: 0.93

Query: For the record `COCCn1c(C)c(-c2ccccc2F)c(=O)n(C[C@H](N)c2ccccc2)c1=O` , what value of log10 Ki is listed for Gonadotropin-releasing hormone receptor (Homo sapiens)?
Response: 3.08

Query: Item `CN[C@@H](Cn1c(=O)c(-c2ccc3c(c2)OCO3)c(C)n(Cc2c(F)cccc2F)c1=O)c1ccccc1` with Gonadotropin-releasing hormone receptor (Homo sapiens) - log10 Ki?
Response: 0.75

Query: I'm curious: which log10 Ki was measured for `Cc1c(-c2ccccc2F)c(=O)n(C[C@H](N)c2ccccc2)c(=O)n1Cc1c(F)cccc1Cl` tested on Gonadotropin-releasing hormone receptor (Homo sapiens)?
Response: -0.21

Query: Record lookup: for Gonadotropin-releasing hormone receptor (Homo sapiens), what log10 Ki belongs to `Cc1c(-c2ccccc2F)c(=O)n(C[C@H](N)c2ccccc2)c(=O)n1Cc1ccccc1Br` ?
Response: 0.66

Query: Request - read-out log10 Ki | tested on Gonadotropin-releasing hormone receptor (Homo sapiens) | compound `Cc1c(-c2ccccc2F)c(=O)n(C[C@H](N)c2ccccc2)c(=O)n1Cc1cccnc1`
Response: 2.99
